Provenance of the data: patent US11135234B2

Notes on MIC obtained with A. baumannii ATCC BAA-1710.
measured_property: MIC (µg/mL)

{"compound": "CNC1C(O[C@H]2OC(CO)[C@@H](NC(=O)[C@@H](O)CN)[C@H](O)C2O)O[C@H]2CC(N)[C@@H](O[C@@H]3C(N)C[C@@H](N)C(O)[C@H]3O)OC2C1O (stereo partly drawn)", "unit": "µg/mL", "obs_value": 8}
{"compound": "CNC1C(O[C@H]2OC(C)[C@@H](NC(CN)CN)[C@H](O)C2O)O[C@H]2CC(N)[C@@H](O[C@H]3CC(O)[C@H](N)CC3N)OC2C1O (stereo partly drawn)", "unit": "µg/mL", "obs_value": 8}
{"compound": "CNC1C(O[C@H]2OC(CO)[C@@H](NC(=O)CN)[C@H](O)C2O)O[C@H]2C[C@H](N)[C@@H](O[C@@H]3C(N)C[C@@H](N)C[C@H]3O)OC2C1O (stereo partly drawn) [Compound V1-o, 6-deoxy-5-epi-4″-N-glycylapramycin]", "unit": "µg/mL", "obs_value": 4}
{"compound": "CNC1C(O[C@H]2OC(CO)[C@@H](N)[C@H](O)C2N)O[C@H]2CC(N)[C@@H](O[C@@H]3C(N)C[C@@H](N)C(O)[C@H]3O)OC2C1O (stereo partly drawn) [Compound G7, 2″-amino-2″-deoxy-2″,3″-diepiapramycin]", "unit": "µg/mL", "obs_value": 8}
{"compound": "CNC1C(O[C@H]2OC(CO)[C@@H](NCCCN)[C@H](O)C2O)O[C@H]2CC(N)[C@@H](O[C@@H]3C(N)C[C@@H](N)C[C@H]3O)OC2C1O (stereo partly drawn)", "unit": "µg/mL", "obs_value": 4}
{"compound": "CNC1C(O[C@H]2OC(CO)[C@@H](N[C@H]3CC[C@@H](N)CC3)[C@H](O)C2O)O[C@H]2CC(N)[C@@H](O[C@@H]3C(N)C[C@@H](N)C(O)[C@H]3O)OC2C1O (stereo partly drawn)", "unit": "µg/mL", "obs_value": 32}
{"compound": "NCC[C@H](O)C(=O)N[C@@H]1C[C@H](N)[C@@H](O[C@H]2O[C@H](CN)[C@@H](O)[C@H](O)[C@H]2O)[C@H](O)[C@H]1O[C@H]1O[C@H](CO)[C@@H](O)[C@H](N)[C@H]1O [AMK, amikacin, reference compound]", "unit": "µg/mL", "obs_value": 64}
{"compound": "CNCC(=O)N[C@@H]1C(CO)O[C@H](OC2O[C@H]3C[C@H](N)[C@@H](O[C@@H]4C(N)C[C@@H](N)C[C@H]4O)OC3C(O)C2NC)C(O)[C@H]1O (stereo partly drawn) [Compound V1-p, 6-deoxy-5-epi-4″-N-sarcosylapramycin]", "unit": "µg/mL", "obs_value": 4}
{"compound": "CNC1C(O[C@H]2OC(CO)[C@@H](NCCCN)[C@H](O)C2O)O[C@H]2CC(N)[C@@H](O[C@H]3CC(O)[C@H](N)CC3N)OC2C1O (stereo partly drawn)", "unit": "µg/mL", "obs_value": 8}

###

# Tested on: S. aureus RN4220
# run_description: MIC, agar plate dilution method, S. aureus RN4220
# Format: cell-based, Staphylococcus aureus
# condition_set: S. aureus RN4220, Sensitive bacterium
# Protocol: As for the representative compounds of a new aminoglycoside antibiotic of the present invention described in Examples, the minimal inhibitory concentration (MIC, μg/mL) was measured for various assay strains of bacteria using an agar plate dilution method in accordance with the method described in the Japan Society of Chemotherapy.
Reported minimal inhibitory concentration (MIC) by item:

{"compound": "CNC1C(OC2OC(CO)C(N)C(O)C2O)OC2CC(N)C(OC3C(N)CC(N)C(O)C3N)OC2C1O (stereo not shown) [Compound D2, 5-amino-5-deoxy-5-epiapramycin]", "test_system": "S. aureus RN4220", "unit": "µg/mL", "minimal inhibitory concentration (MIC)": 4}
{"compound": "CN[C@@H]1[C@@H](O[C@H]2O[C@H](CO)[C@@H](N)[C@H](O)[C@H]2O)O[C@H]2C[C@@H](N)[C@@H](O[C@H]3[C@H](N)[C@@H](O)[C@H](N)C[C@@H]3N)O[C@@H]2[C@@H]1O", "test_system": "S. aureus RN4220", "unit": "µg/mL", "minimal inhibitory concentration (MIC)": 8}
{"compound": "CNC1C(OC2OC(C)C(N)C(O)C2O)OC2CC(N)C(OC3C(N)CC(N)CC3O)OC2C1O (stereo not shown) [Compound Q4, 6,6″-dideoxy-5-epiapramycin]", "test_system": "S. aureus RN4220", "unit": "µg/mL", "minimal inhibitory concentration (MIC)": 2}
{"compound": "CNC1C(CO)OC(OC2OC3CC(N)C(OC4C(N)CC(N)C(O)C4O)OC3C(O)C2NC)C(O)C1O (stereo not shown)", "test_system": "S. aureus RN4220", "unit": "µg/mL", "minimal inhibitory concentration (MIC)": 4}
{"compound": "CNC1C(OC2OC(CO)C(N)CC2O)OC2CC(N)C(OC3C(N)CC(N)C(O)C3F)OC2C1O (stereo not drawn) [Compound M10, 5,3″-dideoxy-5-epi-5-fluoroapramycin]", "test_system": "S. aureus RN4220", "unit": "µg/mL", "minimal inhibitory concentration (MIC)": 2}
{"compound": "CNC1C(O[C@H]2OC(CO)[C@@H](NC(=O)[C@H](C)N)[C@H](O)C2O)O[C@H]2CC(N)[C@@H](O[C@@H]3C(N)C[C@@H](N)C(O)[C@H]3O)OC2C1O (stereo partly shown)", "test_system": "S. aureus RN4220", "unit": "µg/mL", "minimal inhibitory concentration (MIC)": 4}
{"compound": "CNC1C(OC2OC(CO)C(NC(=O)C(N)CO)C(O)C2O)OC2CC(N)C(OC3C(N)CC(N)C(O)C3O)OC2C1O [Compound V1-l, 5-epi-4″-N-(L-seryl)apramycin]", "test_system": "S. aureus RN4220", "unit": "µg/mL", "minimal inhibitory concentration (MIC)": 4}
{"compound": "CNC1C(OC2OC(CO)C(N)C(O)C2O)OC2CC(N)C(OC3C(N)CC(N)CC3F)OC2C1O (stereo not shown)", "test_system": "S. aureus RN4220", "unit": "µg/mL", "minimal inhibitory concentration (MIC)": 2}
{"compound": "CNC1C(OC2OC(CO)C(N)C(O)C2O)OC2CC(N)C(OC3C(N)CC(N)CC3N)OC2C1O (stereo not shown)", "test_system": "S. aureus RN4220", "unit": "µg/mL", "minimal inhibitory concentration (MIC)": 8}
{"compound": "CNC1C(OC2OC(CO)C(N)CC2O)OC2CC(N)C(OC3C(N)CC(N)C(O)C3N)OC2C1O (stereo not shown) [Compound N9, 5-amino-5,3″-dideoxy-5-epiapramycin]", "test_system": "S. aureus RN4220", "unit": "µg/mL", "minimal inhibitory concentration (MIC)": 2}
{"compound": "CNC1C(OC2OC(CO)C(N)C(O)C2O)OC2CC(N)C(OC3C(N)CC(N)C(O)C3O)OC2C1O (stereo not shown) [Compound B5, 5-epiapramycin]", "test_system": "S. aureus RN4220", "unit": "µg/mL", "minimal inhibitory concentration (MIC)": 4}
{"compound": "CN[C@@H]1[C@@H](O[C@H]2O[C@H](C)[C@@H](N)C[C@H]2O)O[C@H]2C[C@@H](N)[C@@H](O[C@H]3[C@H](O)[C@@H](O)[C@H](N)C[C@@H]3N)O[C@@H]2[C@@H]1O", "test_system": "S. aureus RN4220", "unit": "µg/mL", "minimal inhibitory concentration (MIC)": 2}
{"compound": "CNC1C(OC2OC(CO)C(N)C(O)C2O)OC2CC(N)C(OC3C(N)CC(N)C(O)C3O)OC2C1O (stereo not shown) [Compound I3, 2″,3″-diepiapramycin]", "test_system": "S. aureus RN4220", "unit": "µg/mL", "minimal inhibitory concentration (MIC)": 8}
{"compound": "CNC1C(CO)OC(OC2OC3CC(N)C(OC4C(N)CC(N)CC4O)OC3C(O)C2NC)C(O)C1O (stereo not drawn) [Compound S1-l, 6-deoxy-5-epi-4″-N-methylapramycin]", "test_system": "S. aureus RN4220", "unit": "µg/mL", "minimal inhibitory concentration (MIC)": 2}
{"compound": "CN[C@@H]1[C@@H](O[C@H]2O[C@H](CO)[C@@H](N)[C@H](O)[C@H]2O)O[C@H]2C[C@@H](N)[C@@H](O[C@@H]3[C@@H](N)C[C@@H](N)C[C@@H]3O)O[C@@H]2[C@@H]1O [Compound C6, 6-deoxy-5-epiapramycin]", "test_system": "S. aureus RN4220", "unit": "µg/mL", "minimal inhibitory concentration (MIC)": 4}
{"compound": "CNC1C(O[C@H]2OC(CO)[C@@H](NC3CNC3)[C@H](O)C2O)O[C@H]2CC(N)[C@@H](O[C@@H]3C(N)C[C@@H](N)C(O)[C@H]3O)OC2C1O (stereo partly shown)", "test_system": "S. aureus RN4220", "unit": "µg/mL", "minimal inhibitory concentration (MIC)": 4}
{"compound": "CN[C@@H]1[C@@H](O[C@H]2O[C@H](CO)[C@@H](N)[C@H](O)[C@H]2O)O[C@H]2C[C@@H](N)[C@@H](O[C@H]3[C@@H](F)[C@H](N)[C@H](N)C[C@@H]3N)O[C@@H]2[C@@H]1O", "test_system": "S. aureus RN4220", "unit": "µg/mL", "minimal inhibitory concentration (MIC)": 8}
{"compound": "CNC1C(OC2OC(CO)C(NCCNC(=N)N)C(O)C2O)OC2CC(N)C(OC3C(N)CC(N)C(O)C3O)OC2C1O (stereo not shown)", "test_system": "S. aureus RN4220", "unit": "µg/mL", "minimal inhibitory concentration (MIC)": 2}
{"compound": "CNC1C(OC2OC(CO)C(NC(=N)N)CC2O)OC2CC(N)C(OC3C(N)CC(N)C(O)C3O)OC2C1O (stereo not shown)", "test_system": "S. aureus RN4220", "unit": "µg/mL", "minimal inhibitory concentration (MIC)": 1}
{"compound": "CNC1C(O[C@H]2OC(CO)[C@@H](NC(=O)CN)[C@H](O)C2O)O[C@H]2CC(N)[C@@H](O[C@@H]3C(N)C[C@@H](N)C(O)[C@H]3O)OC2C1O (single isomer, unassigned)", "test_system": "S. aureus RN4220", "unit": "µg/mL", "minimal inhibitory concentration (MIC)": 4}
{"compound": "CNC1C(OC2OC(CO)C(NCC3(N)CCCC3)C(O)C2O)OC2CC(N)C(OC3C(N)CC(N)C(O)C3O)OC2C1O (stereo not shown)", "test_system": "S. aureus RN4220", "unit": "µg/mL", "minimal inhibitory concentration (MIC)": 4}
{"compound": "CNC1C(OC2CC(O)C(N)C(CO)O2)OC2CC(N)C(OC3C(N)CC(N)C(O)C3O)OC2C1O (stereo not shown) [Compound Y3, 2″-deoxy-5,3″-diepiapramycin]", "test_system": "S. aureus RN4220", "unit": "µg/mL", "minimal inhibitory concentration (MIC)": 2}
